Where do these numbers come from? They come from the supplement of paper PMC10883282.

System: HS729
PROTOCOL_DESCRIPTION: relative viability vs DMSO control (72 h) (fraction); higher = more viable cells
TEST_CONTEXT: 3.333 µM
Define the label as label 1 when relative viability is strictly less than 0.6 and as label 0 in all remaining cases.

Asked: Item CNC(=O)c1ccc(-c2cnc3ncc(Cc4ccc5ncccc5c4)n3n2)cc1F [Capmatinib] : relative viability beneath 0.6, strictly?
Given back: label 0

###

Test system: HS729
PROTOCOL_DESCRIPTION: relative viability vs DMSO control (72 h) (fraction); higher = more viable cells
TEST_CONTEXT: 0.3704 µM
RECORDED_METRIC: relative viability
Lab note: jot down the number only; don't add units.

Example results:
C=CC(=O)Nc1cccc(Oc2nc(Nc3ccc(N4CCN(C)CC4)cc3)nc3ccsc23)c1 :: 0.904
CO[C@H]1C[C@@H]2CC[C@@H](C)[C@@](O)(O2)C(=O)C(=O)N2CCCC[C@H]2C(=O)O[C@H]([C@H](C)C[C@@H]2CC[C@@H](OP(C)(C)=O)[C@H](OC)C2)CC(=O)[C@H](C)/C=C(\C)[C@@H](O)[C@@H](OC)C(=O)[C@H](C)C[C@H](C)/C=C/C=C/C=C/1C :: 0.924

Asked: Indicate its recorded relative viability; the molecule in question is C=CC(=O)N1CCC[C@@H](n2nc(-c3ccc(Oc4ccccc4)cc3)c3c(N)ncnc32)C1
Given back: 0.926

Asked: Input O=C(Nc1cnn2ccc(N3CCC[C@@H]3c3cc(F)ccc3F)nc12)N1CC[C@H](O)C1 , output reported relative viability.
Given back: 0.905

Asked: Please give measured relative viability of the following entry: C[C@@H]1COCCN1c1cc(-c2ccnn2C)c2ccnc(-c3ccn[nH]3)c2n1
Given back: 0.634

Asked: Indicate the recorded relative viability value for this molecule: Cc1ccc(F)c(NC(=O)Nc2ccc(-c3cccc4[nH]nc(N)c34)cc2)c1
Given back: 0.783

Asked: Specify measured relative viability for COCc1c(-c2cc3cc(C)cc(OC)c3s2)c2c(N)ncnn2c1CN1CCNC(=O)C1 .
Given back: 0.645

Asked: Quote relative viability reported for O=C(Cc1ccc(-c2ccc(OCCN3CCOCC3)cc2)cn1)NCc1ccccc1 please.
Given back: 0.562

Asked: Supply recorded relative viability for Cn1cnc2c(F)c(Nc3ccc(Br)cc3F)c(C(=O)NOCCO)cc21 here.
Given back: 0.906

Asked: For Cn1cc(-c2cc3c(N4CCN(c5ncc([C@@](C)(N)c6ccc(F)cc6)cn5)CC4)ncnn3c2)cn1 , write its relative viability.
Given back: 0.822

Asked: Fill in relative viability for record CC[C@H](Nc1ncnc2[nH]cnc12)c1nc2cccc(F)c2c(=O)n1-c1ccccc1
Given back: 0.919

Asked: Given CC(C)NC(=O)C1CCC(n2c(NC(=O)c3ccc(F)cc3)nc3ccc(CN4CCC(C(C)(C)O)CC4)cc32)CC1 (configuration not stated) , respond with its relative viability.
Given back: 0.695

###

relative viability values, listed per item
Tested on: HS729
PROTOCOL_DESCRIPTION: relative viability vs DMSO control (72 h) (fraction); higher = more viable cells
TEST_CONTEXT: 0.04115 µM
Please reply with the number alone, leaving off any unit.

Record excerpt, results attached:
COc1cc2/c(=N/c3ccc(Br)cc3F)nc[nH]c2cc1OCC1CCN(C)CC1 :: 0.843
C=CC(=O)N1CCC([C@@H]2CCNc3c(C(N)=O)c(-c4ccc(Oc5ccccc5)cc4)nn32)CC1 :: 1.04
CN1CCN(c2ccc3nc(-c4c(N)c5c(F)cccc5[nH]c4=O)[nH]c3c2)CC1 :: 1

In the following, a different compound is considered.
Asked: For HS729, give relative viability of the listed compound: Cn1cnc2c(F)c(Nc3ccc(Br)cc3F)c(C(=O)NOCCO)cc21
Given back: 0.933

###

Test system: SYO-1
PROTOCOL_DESCRIPTION: relative viability vs DMSO control (72 h) (fraction); higher = more viable cells
TEST_CONTEXT: 0.04115 µM
// classify: if (relative viability < 0.9) yes (1) else no (0)

// below: answered compounds
Cc1nc(-c2cn3c(n2)-c2ccc(-c4cnn(C(C)(C)C(N)=O)c4)cc2OCC3)n(C(C)C)n1 :: yes (1)
O=C(Cc1ccc(-c2ccc(OCCN3CCOCC3)cc2)cn1)NCc1ccccc1 :: yes (1)
CNC(=O)c1cc(Oc2ccc(NC(=O)Nc3ccc(Cl)c(C(F)(F)F)c3)c(F)c2)ccn1 :: no (0)
CC[C@H](Nc1ncnc2[nH]cnc12)c1nc2cccc(F)c2c(=O)n1-c1ccccc1 :: no (0)

Asked: Say whether its relative viability is strictly beneath 0.9. Entry: O=C(Nc1cnn2ccc(N3CCC[C@@H]3c3cc(F)ccc3F)nc12)N1CC[C@H](O)C1
Given back: no (0)

Asked: Is 0.9 strictly greater than the compound's reported relative viability? compound: Cc1cnc(Nc2ccc(OCCN3CCCC3)cc2)nc1Nc1cccc(S(=O)(=O)NC(C)(C)C)c1
Given back: yes (1)

Asked: In the record for CN1CCN(c2ccc3nc(-c4c(N)c5c(F)cccc5[nH]c4=O)[nH]c3c2)CC1 , is relative viability less than 0.9?
Given back: no (0)

Asked: Confirm or reject: relative viability of Cc1ccc(F)c(NC(=O)Nc2ccc(-c3cccc4[nH]nc(N)c34)cc2)c1 lies strictly below 0.9
Given back: yes (1)

###

Test system: MES-SA
PROTOCOL_DESCRIPTION: relative viability vs DMSO control (72 h) (fraction); higher = more viable cells
TEST_CONTEXT: 0.00051 µM
Counter-ions that a name gives are not always drawn.
RECORDED_METRIC: relative viability

N#CC[C@H](C1CCCC1)n1cc(-c2ncnc3[nH]ccc23)cn1 [Ruxolitinib] :: 1.01
COc1cc2c(Oc3ccc4[nH]c(C)cc4c3F)ncnc2cc1OCCCN1CCCC1 [Cediranib] :: 0.934
COc1cccc2c1C(=O)c1c(O)c3c(c(O)c1C2=O)C[C@@](O)(C(=O)CO)C[C@@H]3O[C@H]1C[C@H](N)[C@H](O)[C@H](C)O1 [Doxorubicin Hydrochloride] :: 0.937

Asked: In one line, give reported relative viability of the entry CC[C@H](Nc1ncnc2[nH]cnc12)c1nc2cccc(F)c2c(=O)n1-c1ccccc1 [Idelalisib] .
Given back: 1

Asked: Dear colleague, please send me the reported relative viability for COc1cc2/c(=N/c3ccc(Br)cc3F)nc[nH]c2cc1OCC1CCN(C)CC1 [Vandetanib] when you can.
Given back: 0.925

Asked: Consider the compound Cc1nc(-c2cn3c(n2)-c2ccc(-c4cnn(C(C)(C)C(N)=O)c4)cc2OCC3)n(C(C)C)n1 [Taselisib] and give its recorded relative viability.
Given back: 0.902

Asked: Give recorded relative viability. CCCS(=O)(=O)Nc1ccc(F)c(C(=O)c2c[nH]c3ncc(-c4ccc(Cl)cc4)cc23)c1F [Vemurafenib]
Given back: 0.951

Asked: Please look at this compound and report its relative viability: COc1c(OCCCN2CCOCC2)ccc2c1N=C(NC(=O)c1cnc(N)nc1)N1CCN=C21 [Copanlisib]
Given back: 0.926

Asked: Consider the compound Cc1cc(Nc2ncnc3ccc(NC4=NC(C)(C)CO4)cc23)ccc1Oc1ccn2ncnc2c1 [Tucatinib] and give its recorded relative viability.
Given back: 0.968

Asked: Give the reported value of relative viability for this record: C[C@@H](c1ccc2nccn2c1)n1nnc2ncc(-c3cnn(C)c3)nc21 [Volitinib]
Given back: 0.92

Asked: Please look at this compound and report its relative viability: CNC(=O)c1cc(Oc2ccc(NC(=O)Nc3ccc(Cl)c(C(F)(F)F)c3)c(F)c2)ccn1 [Regorafenib]
Given back: 0.988

Asked: Give me measured relative viability, please, for this compound: Cc1ccc(NC(=O)c2ccc(CN3CCN(C)CC3)cc2)cc1Nc1nc(-c2cccnc2)cs1 [Masitinib]
Given back: 0.969

Asked: Provide only the value of recorded relative viability for CN1CCN(c2ccc3nc(-c4c(N)c5c(F)cccc5[nH]c4=O)[nH]c3c2)CC1 [Dovitinib]
Given back: 0.974

Asked: Give a short answer stating reported relative viability for O=C(Cc1ccc(-c2ccc(OCCN3CCOCC3)cc2)cn1)NCc1ccccc1 [KX2-391] .
Given back: 0.976

Asked: Answer with the recorded relative viability of CN1CCC(COc2cnc(-c3cccc(Cn4nc(-c5cccc(C#N)c5)ccc4=O)c3)nc2)CC1 [Tepotinib] only.
Given back: 0.959

###

Test system: G401
PROTOCOL_DESCRIPTION: relative viability vs DMSO control (72 h) (fraction); higher = more viable cells
TEST_CONTEXT: 0.04115 µM
Structures can show the parent of a compound that is named as a salt.
RECORDED_METRIC: relative viability
Answer using only a numeral; do not append any unit.

CC(C)(C)c1cc(NC(=O)Nc2ccc(-c3cn4c(n3)sc3cc(OCCN5CCOCC5)ccc34)cc2)no1 :: 0.984
Cn1cnc2c(F)c(Nc3ccc(Br)cc3F)c(C(=O)NOCCO)cc21 :: 0.904
COc1c(OCCCN2CCOCC2)ccc2c1N=C(NC(=O)c1cnc(N)nc1)N1CCN=C21 :: 0.582
COc1cc2c(Oc3ccc4[nH]c(C)cc4c3F)ncnc2cc1OCCCN1CCCC1 :: 1.01
CN1CCC(COc2cnc(-c3cccc(Cn4nc(-c5cccc(C#N)c5)ccc4=O)c3)nc2)CC1 :: 1.04
COc1cccc2c1C(=O)c1c(O)c3c(c(O)c1C2=O)C[C@@](O)(C(=O)CO)C[C@@H]3O[C@H]1C[C@H](N)[C@H](O)[C@H](C)O1 [Doxorubicin Hydrochloride] :: 0.681
O=C(Nc1cnn2ccc(N3CCC[C@@H]3c3cc(F)ccc3F)nc12)N1CC[C@H](O)C1 :: 1.01
C[C@@H]1COCCN1c1cc(-c2ccnn2C)c2ccnc(-c3ccn[nH]3)c2n1 :: 0.915
CCN1CCN(Cc2ccc(Nc3ncc(F)c(-c4cc(F)c5nc(C)n(C(C)C)c5c4)n3)nc2)CC1 :: 0.822
Cc1ccc(NC(=O)c2ccc(CN3CCN(C)CC3)cc2)cc1Nc1nc(-c2cccnc2)cs1 :: 0.971

Asked: Note down relative viability recorded for N#CC[C@H](C1CCCC1)n1cc(-c2ncnc3[nH]ccc23)cn1
Given back: 0.969

Asked: Answer with the recorded relative viability for the molecule listed here: CC[C@H](Nc1ncnc2[nH]cnc12)c1nc2cccc(F)c2c(=O)n1-c1ccccc1
Given back: 0.998
